# Target desc: T1, PUF4 RNA-binding domain (Saccharomyces cerevisiae, UniProt P25339 537-888)
# T1 sequence: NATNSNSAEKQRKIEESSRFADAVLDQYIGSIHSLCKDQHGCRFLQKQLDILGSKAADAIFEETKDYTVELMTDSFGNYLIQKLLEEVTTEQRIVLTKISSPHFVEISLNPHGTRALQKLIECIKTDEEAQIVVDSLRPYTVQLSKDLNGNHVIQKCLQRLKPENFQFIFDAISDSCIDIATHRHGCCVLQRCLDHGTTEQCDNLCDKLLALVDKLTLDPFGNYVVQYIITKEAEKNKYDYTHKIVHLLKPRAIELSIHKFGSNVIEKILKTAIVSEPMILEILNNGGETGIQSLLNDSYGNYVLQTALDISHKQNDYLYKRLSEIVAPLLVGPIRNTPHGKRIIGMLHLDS
# Assay name: Mg; RNA-MaP; 20 mM Na-HEPES pH 7.4, 30 mM KOAc, 0.75 mM MgCl2, 0.1% Tween-20, 5% glycerol, 0.1 mg/mL BSA, 2 mM DTT; 25 C; 0.0125-409.6 nM protein
# Assay setup: tags: N-His6-TEV cleaved; C-SNAP kept, Cy3B-labelled; label: tethered on chip by stalled RNA polymerase
// reported pKd per item
The scale used: pKd is minus the common logarithm of the concentration in molar units.

Ie_S4_P5E.1_K5.1_C5.1_H5.1_A5.1_[+5TCTCT]_F5.1_T5.1 (ssRNA) RNA: UUUGACAACUGAUCGUUCUUUCUUGUAUUCUCUUAUUAUUCUUUCUCGAUCAGUUGUCUUU :: 7.85
Id_i_S2_P3E.6_K3.2_C3.3_[T-3G]_[C-2G]_[T-1C]_H3.2_A3.1_F3.1_T3.2 (ssRNA) RNA: UUUGAUUAAUAUGAUAUCGUUCUUUCUGGCUAUAUAUAUAUUCUUUCUCGAUAUCAUAUUAAUCUUU :: 5.89

Okay, next one:
Ask | What value of measured pKd is listed for Ie_S4_P5E.1_K5.1_C5.1_H5.1_A5.1_F5.1_[+9TCTC]_T5.1 (ssRNA) RNA: UUUGACAACUGAUCGUUCUUUCUUGUAUUAUUUCUCAUUCUUUCUCGAUCAGUUGUCUUU ?
Reply | 7.74
